target: hTRPA1 (Homo sapiens, UniProt O75762, K186N); construct: expressed in transfected cells; host or cells: HEK293/TREx (Invitrogen), induced with tetracycline; experiment: TRPA1 patch clamp (perforated patch, AITC-activated current); assay type: cell-based; settings: stated in Example 4 (1000 nM=355 ng/mL); read-out: IC50 against TRPA1
Sequence (O75762 whole entry K186N): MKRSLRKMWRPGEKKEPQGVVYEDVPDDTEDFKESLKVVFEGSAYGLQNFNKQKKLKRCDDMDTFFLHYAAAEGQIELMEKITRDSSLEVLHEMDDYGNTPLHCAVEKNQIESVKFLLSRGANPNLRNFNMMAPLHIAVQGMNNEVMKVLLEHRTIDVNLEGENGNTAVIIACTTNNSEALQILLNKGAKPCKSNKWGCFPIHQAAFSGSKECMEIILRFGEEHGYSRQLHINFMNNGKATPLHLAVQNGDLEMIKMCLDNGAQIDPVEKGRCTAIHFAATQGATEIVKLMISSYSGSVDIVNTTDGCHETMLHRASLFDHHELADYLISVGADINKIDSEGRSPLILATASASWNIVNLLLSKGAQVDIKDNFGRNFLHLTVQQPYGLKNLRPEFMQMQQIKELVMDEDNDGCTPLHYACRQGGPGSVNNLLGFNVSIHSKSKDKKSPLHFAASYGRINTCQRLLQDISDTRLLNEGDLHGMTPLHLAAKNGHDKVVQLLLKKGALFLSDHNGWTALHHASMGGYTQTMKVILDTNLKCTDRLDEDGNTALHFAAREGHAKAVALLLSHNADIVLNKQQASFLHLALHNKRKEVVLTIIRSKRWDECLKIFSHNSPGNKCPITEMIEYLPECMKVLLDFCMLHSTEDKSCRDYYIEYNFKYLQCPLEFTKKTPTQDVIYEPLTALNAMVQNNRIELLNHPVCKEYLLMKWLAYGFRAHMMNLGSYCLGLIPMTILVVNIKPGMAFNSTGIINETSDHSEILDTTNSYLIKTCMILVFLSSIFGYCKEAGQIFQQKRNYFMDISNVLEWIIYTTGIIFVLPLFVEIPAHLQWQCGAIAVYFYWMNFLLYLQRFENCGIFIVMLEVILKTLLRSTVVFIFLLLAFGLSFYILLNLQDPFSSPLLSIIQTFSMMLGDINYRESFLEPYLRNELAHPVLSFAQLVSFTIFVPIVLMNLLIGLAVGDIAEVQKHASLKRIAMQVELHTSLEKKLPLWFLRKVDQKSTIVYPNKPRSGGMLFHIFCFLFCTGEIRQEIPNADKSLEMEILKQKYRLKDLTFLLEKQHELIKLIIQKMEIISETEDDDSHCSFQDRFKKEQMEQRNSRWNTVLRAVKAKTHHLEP
metricName: IC50 (nM)
Report only the number, with the unit nM understood.

query: Name the recorded IC50 of `CC(C)c1ccc(NC(=O)Cn2cnc3c2c(=O)n(C)c(=O)n3C)cc1` , assay system hTRPA1 (Homo sapiens, UniProt O75762, K186N).
result: 1000

----------
Would you mind telling me the reported IC50 of each entry?
target: hTRPA1 (Homo sapiens, UniProt O75762, K186N); construct: expressed in transfected cells; host or cells: HEK293/TREx (Invitrogen), induced with tetracycline; assay: TRPA1 patch clamp (perforated patch, AITC-activated current); assay type: cell-based; details: Table 2; inward current; read-out: hTRPA1 Patch Inwd IC50

query: Give IC50 for `Cc1ccccc1CCNC(=O)Cn1cnc2c1c(=O)n(C)c(=O)n2C`
result: ≤ 10 µM

query: Give IC50 for `Cn1c(=O)c2c(ncn2CC(=O)Nc2ccc(-c3ccccc3)cc2)n(C)c1=O`
result: ≤ 1 µM

query: Give IC50 for `Cn1c(=O)c2c(ncn2CC(=O)NCCc2ccc(C#N)cc2)n(C)c1=O`
result: ≤ 10 µM

query: Give IC50 for `Cn1c(=O)c2c(ncn2CC(=O)NC(c2ccccc2)c2ccccc2)n(C)c1=O`
result: > 10 µM

query: Give IC50 for `Cc1ccc2nc(NC(=O)Cn3cnc4c3c(=O)n(C)c(=O)n4C)sc2c1`
result: ≤ 5 µM

query: Give IC50 for `Cn1c(=O)c2c(ncn2CC(=O)Nc2nccs2)n(C)c1=O`
result: > 10 µM

query: Give IC50 for `COc1ccc(NC(=O)Cn2cnc3c2c(=O)n(C)c(=O)n3C)cc1`
result: ≤ 10 µM

query: Give IC50 for `Cn1c(=O)c2c(ncn2CC(=O)Nc2ccc(C3CCCC3)cc2)n(C)c1=O`
result: ≤ 0.5 µM

query: Give IC50 for `Cn1c(=O)c2c(ncn2CC(=O)Nc2ccc(Oc3ccccc3)cc2)n(C)c1=O`
result: ≤ 0.5 µM

----------
molecular target: hERG (Homo sapiens, UniProt Q12809); assay: hERG patch clamp (Qpatch) selectivity; conditions: human, selective for TRPA1 over hERG, Table 2
Sequence (Q12809 whole entry): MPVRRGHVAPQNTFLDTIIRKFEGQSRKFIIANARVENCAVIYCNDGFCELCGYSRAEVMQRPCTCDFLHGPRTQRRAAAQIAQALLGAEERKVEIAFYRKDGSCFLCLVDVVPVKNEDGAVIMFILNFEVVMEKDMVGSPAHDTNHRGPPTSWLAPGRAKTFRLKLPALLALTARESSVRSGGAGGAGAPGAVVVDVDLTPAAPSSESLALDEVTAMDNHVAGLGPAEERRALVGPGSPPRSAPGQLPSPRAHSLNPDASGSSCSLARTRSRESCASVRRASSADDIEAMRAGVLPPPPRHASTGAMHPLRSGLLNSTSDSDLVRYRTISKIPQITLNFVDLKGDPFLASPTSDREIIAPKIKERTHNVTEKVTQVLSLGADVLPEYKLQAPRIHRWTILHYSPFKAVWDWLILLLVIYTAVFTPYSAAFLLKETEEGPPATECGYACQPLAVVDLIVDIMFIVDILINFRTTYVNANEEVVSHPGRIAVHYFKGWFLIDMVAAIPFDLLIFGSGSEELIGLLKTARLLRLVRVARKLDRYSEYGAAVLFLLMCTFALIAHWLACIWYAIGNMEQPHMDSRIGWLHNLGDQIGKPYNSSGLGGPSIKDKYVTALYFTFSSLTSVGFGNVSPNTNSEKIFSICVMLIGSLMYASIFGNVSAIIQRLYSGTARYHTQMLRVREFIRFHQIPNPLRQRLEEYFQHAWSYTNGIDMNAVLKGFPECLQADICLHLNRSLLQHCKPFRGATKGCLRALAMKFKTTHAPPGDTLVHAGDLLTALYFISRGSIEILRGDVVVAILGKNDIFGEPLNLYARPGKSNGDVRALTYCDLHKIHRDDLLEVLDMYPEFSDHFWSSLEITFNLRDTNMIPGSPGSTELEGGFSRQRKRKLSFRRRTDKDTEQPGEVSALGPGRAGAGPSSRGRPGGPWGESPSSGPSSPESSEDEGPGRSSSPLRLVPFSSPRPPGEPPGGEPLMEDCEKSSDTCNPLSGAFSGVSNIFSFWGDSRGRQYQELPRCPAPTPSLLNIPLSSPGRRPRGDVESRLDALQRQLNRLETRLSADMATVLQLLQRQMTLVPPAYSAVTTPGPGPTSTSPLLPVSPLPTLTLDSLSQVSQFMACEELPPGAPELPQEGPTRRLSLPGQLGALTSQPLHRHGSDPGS
metricName: selectivity ratio

query: Name the recorded selectivity ratio of CCC(C)c1ccc(NC(=O)Cn2cnc3c2c(=O)n(C)c(=O)n3C)cc1 (stereo not shown) , assay system hERG (Homo sapiens, UniProt Q12809).
result: ≥ 25

query: Name the recorded selectivity ratio of `Cn1c(=O)c2c(ncn2CC(=O)Nc2ccc(Cl)c(Cl)c2)n(C)c1=O` , assay system hERG (Homo sapiens, UniProt Q12809).
result: ≥ 45

query: Name the recorded selectivity ratio of `Cn1c(=O)c2c(ncn2CC(=O)Nc2cccc(C(F)(F)F)c2)n(C)c1=O` , assay system hERG (Homo sapiens, UniProt Q12809).
result: ≥ 2

query: Name the recorded selectivity ratio of `Cn1c(=O)c2c(ncn2CC(=O)Nc2ccc3c(c2)OC2(CCCCC2)O3)n(C)c1=O` , assay system hERG (Homo sapiens, UniProt Q12809).
result: ≥ 45

query: Name the recorded selectivity ratio of `CCc1ccc(-c2csc(NC(=O)Cn3cnc4c3c(=O)n(C)c(=O)n4C)n2)cc1` , assay system hERG (Homo sapiens, UniProt Q12809).
result: ≥ 150

query: Name the recorded selectivity ratio of `Cn1c(=O)c2c(ncn2CC(=O)Nc2nc(-c3ccc(Br)cc3)cs2)n(C)c1=O` , assay system hERG (Homo sapiens, UniProt Q12809).
result: ≥ 75

query: Name the recorded selectivity ratio of `CCOc1ccc(Oc2ccc(NC(=O)Cn3cnc4c3c(=O)n(C)c(=O)n4C)cc2)cc1` , assay system hERG (Homo sapiens, UniProt Q12809).
result: ≥ 10

----------
target: hTRPA1 (Homo sapiens, UniProt O75762, K186N); construct: expressed in transfected cells; host or cells: HEK293/TREx (Invitrogen), induced with tetracycline; test: High throughput Ca2+ fluorescence (Fluo4) assay, AITC stimulation; format: cell-based; conditions: Table 1; read-out: hTRPA1 Fluo4 IC50
metricName: IC50

query: Give IC50 for CCOC(=O)C1=C(c2ccccc2)NC(=S)NC1c1ccc(SC)cc1 (centres unmarked)
result: ≤ 5 µM

query: Give IC50 for CCCCCOC(=O)C1=C(C)NC(=O)NC1c1cccc(Br)c1 (centres unmarked)
result: > 10 µM

query: Give IC50 for COC(=O)C1=C(C)N(C)C(=O)NC1c1cccc(Cl)c1Cl (centres unmarked)
result: > 10 µM

query: Give IC50 for CCN(CC)C(=O)C1=C(C)NC(=S)NC1c1ccc(OC)cc1OC (centres unmarked)
result: > 10 µM

query: Give IC50 for CCOC(=O)C1=C(C)N(C)C(=S)NC1c1ccccc1 (centres unmarked)
result: > 10 µM

query: Give IC50 for COC(=O)C1=C(C)NC(=O)NC1c1ccccc1OC (centres unmarked)
result: > 10 µM

query: Give IC50 for COC(=O)C1=C(c2ccccc2)NC(=S)NC1c1ccc(F)cc1 (centres unmarked)
result: > 10 µM

query: Give IC50 for CC1=C(C(=O)N(C)C)C(c2ccccc2F)NC(=S)N1 (centres unmarked)
result: > 10 µM

query: Give IC50 for CCOC(=O)C1=C(c2ccccc2)NC(=S)NC1c1cccc(OC)c1 (centres unmarked)
result: ≤ 5 µM

query: Give IC50 for CC1=C(C(=O)OC2CCCC2)C(c2ccccc2Br)NC(=O)N1 (centres unmarked)
result: > 10 µM

query: Give IC50 for CCN(CC)C(=O)C1=C(C)NC(=S)NC1c1ccc(F)cc1 (centres unmarked)
result: > 10 µM

----------
biological target: hTRPA1 (Homo sapiens, UniProt O75762, K186N); construct: expressed in transfected cells; host or cells: HEK293/TREx (Invitrogen), induced with tetracycline; assay: TRPA1 patch clamp (perforated patch, AITC-activated current); assay type: cell-based; conditions: hTRPA1 Patch IC50 (nM), Table 1
metricName: IC50

query: Give IC50 for CCOC(=O)C1=C(C)NC(=S)NC1c1cccc(OC)c1 (stereo not shown)
result: ≤ 10000 nM

----------
Would you mind telling me the reported pIC50 of each entry?
biological target: hTRPA1 (Homo sapiens, UniProt O75762, K186N); construct: expressed in transfected cells; host or cells: HEK293/TREx (Invitrogen), induced with tetracycline; test: High throughput Ca2+ fluorescence (Fluo4) assay, AITC stimulation; type: cell-based; details: Table 2; read-out: hTRPA1 Fluor IC50
pIC50: −log10 of the molar value.

query: Give pIC50 for CC(C(=O)N(C)c1ccccc1)n1cnc2c1c(=O)n(C)c(=O)n2C (centres unmarked)
result: < 5.00

query: Give pIC50 for `Cn1c(=O)c2c(ncn2CC(=O)NCC(C)(c2ccccc2)c2ccccc2)n(C)c1=O`
result: ≥ 5.30

query: Give pIC50 for `CCCc1ccc(-c2csc(NC(=O)Cn3cnc4c3c(=O)n(C)c(=O)n4C)n2)cc1`
result: ≥ 5.30

query: Give pIC50 for `Cn1c(=O)c2c(ncn2CC(=O)NCCOC(=O)c2ccc(Cl)cc2)n(C)c1=O`
result: < 5.00

query: Give pIC50 for `Cn1c(=O)c2c(ncn2CC(=O)Nc2cccc(I)c2)n(C)c1=O`
result: ≥ 5.30

query: Give pIC50 for `Cc1ccc(F)cc1NC(=O)Cn1cnc2c1c(=O)n(C)c(=O)n2C`
result: < 5.00

query: Give pIC50 for `CSc1ccccc1NC(=O)Cn1cnc2c1c(=O)n(C)c(=O)n2C`
result: < 5.00

query: Give pIC50 for CC(CCc1ccccc1)NC(=O)Cn1cnc2c1c(=O)n(C)c(=O)n2C (centres unmarked)
result: < 5.00

query: Give pIC50 for `Cc1ccc(NC(=O)Cn2cnc3c2c(=O)n(C)c(=O)n3C)cc1F`
result: < 5.00

query: Give pIC50 for `Cn1c(=O)c2c(ncn2CC(=O)NCc2ccc(F)cc2)n(C)c1=O`
result: < 5.00

query: Give pIC50 for `COc1cc([N+](=O)[O-])ccc1NC(=O)Cn1cnc2c1c(=O)n(C)c(=O)n2C`
result: ≥ 5.30

query: Give pIC50 for `CN(CC(=O)Nc1ccc(F)c(F)c1F)C(=O)Cn1cnc2c1c(=O)n(C)c(=O)n2C`
result: < 5.00

query: Give pIC50 for CCC(C)c1ccc(NC(=O)Cn2cnc3c2c(=O)n(C)c(=O)n3C)cc1 (centres unmarked)
result: ≥ 5.30

query: Give pIC50 for `CN(CCOc1ccccc1)C(=O)Cn1cnc2c1c(=O)n(C)c(=O)n2C`
result: ≤ 4.70

query: Give pIC50 for `CC(=O)c1ccccc1NC(=O)Cn1cnc2c1c(=O)n(C)c(=O)n2C`
result: < 5.00

query: Give pIC50 for `Cn1c(=O)c2c(ncn2CC(=O)Nc2ccccc2Cc2ccccc2)n(C)c1=O`
result: < 5.00

query: Give pIC50 for CCc1ccc(NC(=O)C(C)n2cnc3c2c(=O)n(C)c(=O)n3C)cc1 (centres unmarked)
result: ≥ 5.30
